# TEST NAME: fraction unbound in human plasma (equilibrium dialysis), Biological Test Example 5
# Format: in vitro ADME
# RECORDED CONDITIONS: fraction unbound in human plasma
REPORTED METRIC: Biological Test Example 5 (%)
Report the value in % with no unit label.

[[record]]
compound = "CC[C@@H](c1ccc(-c2ccc(=O)n(C)c2)cc1)N1CC[C@](CC(C)(C)O)(c2ccccc2)OC1=O [Example 54]"
reported_metric = "Biological Test Example 5 (%)"
numeric_value = 9.1


# ---- query compound ----
Give the measured Biological Test Example 5 (%) of C[C@@H](c1ccc(-c2ccn(CC(F)(F)F)c(=O)c2)cc1)N1CC[C@](CC(C)(C)O)(c2ccccc2)OC1=O [Example 66] . 5.5
